From: patent US20260174875A1

Parameter hAMYR3 Potency, 1% HSA, EC50 [pM]: see the listing below.
Target: T1, human amylin-3(a) receptor (human, UniProt P30988 25-474; O60896 24-148)
T1 sequence (looked up) 1: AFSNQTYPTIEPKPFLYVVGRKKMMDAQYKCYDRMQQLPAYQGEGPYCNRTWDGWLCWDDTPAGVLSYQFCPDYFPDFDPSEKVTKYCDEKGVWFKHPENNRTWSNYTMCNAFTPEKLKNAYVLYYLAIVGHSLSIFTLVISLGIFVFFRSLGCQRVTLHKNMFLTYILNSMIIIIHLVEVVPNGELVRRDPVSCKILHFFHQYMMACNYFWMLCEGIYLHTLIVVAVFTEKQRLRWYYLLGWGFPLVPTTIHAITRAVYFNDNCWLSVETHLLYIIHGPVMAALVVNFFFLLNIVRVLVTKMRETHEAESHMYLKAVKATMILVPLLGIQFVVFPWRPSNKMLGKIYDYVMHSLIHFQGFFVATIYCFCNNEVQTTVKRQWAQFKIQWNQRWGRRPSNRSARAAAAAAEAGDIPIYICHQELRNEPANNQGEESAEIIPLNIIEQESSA
T1 sequence (looked up) 2: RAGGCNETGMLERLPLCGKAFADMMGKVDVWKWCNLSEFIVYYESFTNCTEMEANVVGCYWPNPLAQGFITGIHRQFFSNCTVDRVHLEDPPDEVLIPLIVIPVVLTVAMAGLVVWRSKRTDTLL
Experiment: cell-based or functional assay
Numbered stars: 1 amine (or outer) side, 2 acyl side, 3 side chain; on linkers, the order of the positions; unused ones are H or OH. Square brackets hold non-standard residues; d marks the D form. Side chains are listed from the residue outwards. * marks the point of attachment. C20 diacid = O=C(O)CCCCCCCCCCCCCCCCCCC(=O)*; C18 diacid = O=C(O)CCCCCCCCCCCCCCCCC(=O)*; γGlu = O=C(O)[C@H](CCC(=O)[*:2])N[*:1]; AEEA = NCCOCCOCC(=O)O; Aib = CC(C)(N)C(=O)O
Return type: number; implicit unit pM.

[[record]]
binder = "Compound 80 (peptide) peptide: Y[Aib]EGTFTSDYSILLEEQAAREFIEWLLAGGPSSGEASHLSTAQTQRLSAELHRLK([AEEA-AEEA-γGlu-C18 diacid])TLPRTETGSGSP-NH2"
readout_label = "hAMYR3 Potency, 1% HSA, EC50 [pM]"
measurement_unit = "pM"
reported_result = 62.4

[[record]]
binder = "Compound 14 (peptide) peptide: H[Aib]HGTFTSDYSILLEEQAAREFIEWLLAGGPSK([AEEA-AEEA-γGlu-C18 diacid])GAPPPSGGGGASELSTAALGRLSAELHRLATLPRTETGSGSP-NH2"
readout_label = "hAMYR3 Potency, 1% HSA, EC50 [pM]"
measurement_unit = "pM"
reported_result = 33.4

[[record]]
binder = "Compound 16 (peptide) peptide: H[Aib]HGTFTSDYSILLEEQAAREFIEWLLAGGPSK([AEEA-AEEA-γGlu-C20 diacid])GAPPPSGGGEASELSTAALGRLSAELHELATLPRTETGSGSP-NH2"
readout_label = "hAMYR3 Potency, 1% HSA, EC50 [pM]"
measurement_unit = "pM"
reported_result = 166


Now for the binder whose hAMYR3 Potency, 1% HSA, EC50 [pM] we want.
The measured hAMYR3 Potency, 1% HSA, EC50 [pM] associated with Compound 114 (peptide) peptide: Y[Aib]EGTFTSDYSILLEEQAAREFIEWLLAGGPSSGAGQAPGQAPGASHLSTAALARLSAELHK([AEEA-AEEA-γGlu-C18 diacid])LATLPRTETGSGSP-NH2 reads 45.2
